Test system: BT-549 breast
Assay: NCI tumour cell line growth inhibition, 48 h
Catalogue of molecules with associated GI50

Cc1cc(N2CCCC2)nc(NC2CCCC(Nc3ccnc4cc(Cl)ccc34)C2)n1 (stereo not drawn) ... 1800 nM
CCCN1CCN(c2ccc3nc(-c4ccc5nc(-c6cc(OC)ccc6OC)[nH]c5c4)[nH]c3c2)CC1 ... 15700 nM
O=C(CC12CC3CC(CC(C3)C1)C2)NCCOCCOCCOCCNC(=O)c1cc2c(o1)C(=O)c1ccccc1C2=O ... 1330 nM
O=C([O][Hg][CH2]C1COCC([CH2][Hg][O]C(=O)c2ccccc2)O1)c1ccccc1 (stereo not drawn) ... 17300 nM
COc1cc2cc(C(=O)Nc3cc(N)c4ccccc4c3CCCl)[nH]c2c(OC)c1OC ... 121 nM
CC[Si](CC)(CC)OC[C@]1([C@@H]2COC(C)(C)O2)CC=CC(=O)O1 ... 20200 nM
O=CN1N=C(c2ccc(Cl)cc2)CC1c1cccc(Nc2ccnc3cc(Cl)ccc23)c1 (stereo not drawn) ... 1780 nM
C=C1C(=O)[C@@]23CC1C(O)[C@@H](OC(C)=O)[C@@H]2C1(C)C(OC(C)=O)C[C@@H](OC(C)=O)C(C)(C)[C@@H]1C[C@H]3OC(C)=O (stereo partly drawn) ... 1.87 µg/mL

Reported GI50, molecule `Cc1cc(N2CCN(c3ccnc4cc(Cl)ccc34)CC2)nc(NC2CCCCC2)n1` : ____
1660 nM

Reported GI50, molecule `COc1ccc(CNc2c3ccccc3nc3ccc(OC)cc23)cc1` : ____
4250 nM

Reported GI50, molecule `c1cn2cc(-c3ccc4ncn(C5CCCCC5)c4c3)nc(-c3ccc4c(c3)ncn4C3CCCCC3)c2n1` : ____
1940 nM

Reported GI50, molecule `c1cc(OCCN2CCCCC2)ccc1CNc1ccc2nc(CCC3CCCCC3)[nH]c2c1` : ____
1710 nM

Reported GI50, molecule `COc1cc2c(Oc3ccc4[nH]c(C)cc4c3F)ccnc2cc1OCC1(N)CC1` : ____
1300 nM
